assay-method-text: Stability of crystalline forms held at room temperature, purity by HPLC
Assay type: physicochemical
measurement-context: room temperature, duration 3 days, HPLC; hydrochloride
Reported Purity values are given for each entry in this list.
API: value field is a number in %; no unit string.

See these solved cases before continuing.
>>> value_measured("CC[C@@]1(O)C(=O)OCc2c1cc1n(c2=O)Cc2cc3c(CN(C)C)c(O)ccc3nc2-1.Cl [Form I, topotecan hydrochloride]")
99.65
>>> value_measured("CC[C@@]1(O)C(=O)OCc2c1cc1n(c2=O)Cc2cc3c(CN(C)C)c(O)ccc3nc2-1.Cl [Form H, topotecan hydrochloride]")
99.90
>>> value_measured("CC[C@@]1(O)C(=O)OCc2c1cc1n(c2=O)Cc2cc3c(CN(C)C)c(O)ccc3nc2-1.Cl [Form G, topotecan hydrochloride]")
99.06
>>> value_measured("CC[C@@]1(O)C(=O)OCc2c1cc1n(c2=O)Cc2cc3c(CN(C)C)c(O)ccc3nc2-1.Cl [Form F, topotecan hydrochloride]")
99.92
>>> value_measured("CC[C@@]1(O)C(=O)OCc2c1cc1n(c2=O)Cc2cc3c(CN(C)C)c(O)ccc3nc2-1.Cl [Form E, topotecan hydrochloride]")
99.27

Consider the record given below.
The reported Purity of the compound CC[C@@]1(O)C(=O)OCc2c1cc1n(c2=O)Cc2cc3c(CN(C)C)c(O)ccc3nc2-1.Cl [Form D, topotecan hydrochloride] was 99.21

---

assay-method-text: Stability of crystalline forms held at room temperature, purity by HPLC
Type: physicochemical
measurement-context: room temperature, duration 20 days, HPLC; hydrochloride
endpoint: Purity (%)
Reply with just the number (in %).

The following molecules have reported results that may help.
>>> value_measured("CC[C@@]1(O)C(=O)OCc2c1cc1n(c2=O)Cc2cc3c(CN(C)C)c(O)ccc3nc2-1.Cl [Form E, topotecan hydrochloride]")
99.29
>>> value_measured("CC[C@@]1(O)C(=O)OCc2c1cc1n(c2=O)Cc2cc3c(CN(C)C)c(O)ccc3nc2-1.Cl [Form G, topotecan hydrochloride]")
98.88

Note to self: Purity recorded for CC[C@@]1(O)C(=O)OCc2c1cc1n(c2=O)Cc2cc3c(CN(C)C)c(O)ccc3nc2-1.Cl [Form I, topotecan hydrochloride] was 99.56

// CC[C@@]1(O)C(=O)OCc2c1cc1n(c2=O)Cc2cc3c(CN(C)C)c(O)ccc3nc2-1.Cl [Form D, topotecan hydrochloride] : Purity value = 99.08

Reported Purity for CC[C@@]1(O)C(=O)OCc2c1cc1n(c2=O)Cc2cc3c(CN(C)C)c(O)ccc3nc2-1.Cl [Form H, topotecan hydrochloride] was 99.89

---

assay-method-text: Stability of crystalline forms held at room temperature, purity by HPLC
Type: physicochemical
measurement-context: room temperature, duration 0 hour, HPLC; hydrochloride
Parameter Purity: see the listing below.
# number only, unit % dropped from output

>>> value_measured("CC[C@@]1(O)C(=O)OCc2c1cc1n(c2=O)Cc2cc3c(CN(C)C)c(O)ccc3nc2-1.Cl [Form F, topotecan hydrochloride]")
99.94
>>> value_measured("CC[C@@]1(O)C(=O)OCc2c1cc1n(c2=O)Cc2cc3c(CN(C)C)c(O)ccc3nc2-1.Cl [Form D, topotecan hydrochloride]")
99.32
>>> value_measured("CC[C@@]1(O)C(=O)OCc2c1cc1n(c2=O)Cc2cc3c(CN(C)C)c(O)ccc3nc2-1.Cl [Form E, topotecan hydrochloride]")
98.99
>>> value_measured("CC[C@@]1(O)C(=O)OCc2c1cc1n(c2=O)Cc2cc3c(CN(C)C)c(O)ccc3nc2-1.Cl [Form H, topotecan hydrochloride]")
99.92
>>> value_measured("CC[C@@]1(O)C(=O)OCc2c1cc1n(c2=O)Cc2cc3c(CN(C)C)c(O)ccc3nc2-1.Cl [Form G, topotecan hydrochloride]")
99.11

Attention now turns to another entry.
Purity measured on CC[C@@]1(O)C(=O)OCc2c1cc1n(c2=O)Cc2cc3c(CN(C)C)c(O)ccc3nc2-1.Cl [Form I, topotecan hydrochloride] = 99.70

Data provenance is patent US8013158B2.
